pKi: −log10 of the molar value.
System: Carbonic anhydrase 1 (Homo sapiens, UniProt P00915) | Read-out: pKi | Origin: multiple publications
Mark TRUE for reported pKi of 7 or greater; mark FALSE for anything smaller.

> print(dat)
                          structureassmiles  answerlabel
1    Cc1cc(=O)oc2c(CN3CCN(CCO)CC3)c(O)ccc12        FALSE
2  COc1cc(C(=O)OCCCCCCCN(C)CCOC(=O)c2ccc(S(N)(=O)=O)cc2)cc(OC)c1OC         TRUE
3   O=c1ccc2cc(-n3cc(CNc4ccccc4F)nn3)ccc2o1        FALSE
4  NS(=O)(=O)c1cccc(NC(=O)NCCNCc2ccc(Br)cc2O)c1        FALSE

* * *

System: Carbonic anhydrase 1 (Homo sapiens, UniProt P00915) | Read-out: pKi | Origin: multiple publications
pKi: −log10 of the molar value.
Mark YES for reported pKi of 5 or greater; mark NO for anything smaller.

> print(dat)
                           structureassmiles                            targetorsystem  answerlabel
 1    O=c1ccc2cc(-n3cc(CNc4ccccc4)nn3)ccc2o1  Carbonic anhydrase 1 (Homo sapiens, UniProt P00915)           NO
 2  O=C1Nc2ccccc2C1=CNC1=NS(=O)(=O)c2ccccc21  Carbonic anhydrase 1 (Homo sapiens, UniProt P00915)           NO
 3  O=C1Nc2ccccc2C1=CNc1ccc(C(=O)Nc2nccs2)cc1  Carbonic anhydrase 1 (Homo sapiens, UniProt P00915)           NO
 4  COc1ccc(NS(=O)(=O)c2ccc(Nc3ncc4c(n3)CC(C)(C)CC4=O)cc2)cc1  Carbonic anhydrase 1 (Homo sapiens, UniProt P00915)           NO
 5  CCn1c2ccc(F)cc2c2nnc(SCc3cn(-c4ccc(S(N)(=O)=O)cc4)nn3)nc21  Carbonic anhydrase 1 (Homo sapiens, UniProt P00915)          YES
 6  Cc1ccc(NC(=O)NCc2cn(CCCCS(N)(=O)=O)nn2)cc1  Carbonic anhydrase 1 (Homo sapiens, UniProt P00915)          YES
 7  O=C(NC(=S)NCc1ccc2c(c1)OCO2)c1cc2ccccc2oc1=O  Carbonic anhydrase 1 (Homo sapiens, UniProt P00915)           NO
 8  NS(=O)(=O)c1ccc(CCNC(=O)c2ccc3cc[nH]c3c2)cc1  Carbonic anhydrase 1 (Homo sapiens, UniProt P00915)          YES
 9  NS(=O)(=O)c1cccc(NC(=O)c2ccc3[nH]ccc3c2)c1  Carbonic anhydrase 1 (Homo sapiens, UniProt P00915)          YES
10  NS(=O)(=O)c1ccc(CNC(=O)[C@@H](Cc2c[nH]c3ccccc23)NC(=O)OCc2ccccc2)cc1  Carbonic anhydrase 1 (Homo sapiens, UniProt P00915)          YES
11  Cn1c2ccc(F)cc2c2nnc(SCc3cn(-c4ccc(S(N)(=O)=O)cc4)nn3)nc21  Carbonic anhydrase 1 (Homo sapiens, UniProt P00915)          YES
12  COC(=O)c1ccccc1NC(=O)COc1ccc2oc(=O)ccc2c1  Carbonic anhydrase 1 (Homo sapiens, UniProt P00915)           NO
13  COc1cc([N+](=O)[O-])ccc1CNCCNC(=O)Nc1cccc(S(N)(=O)=O)c1  Carbonic anhydrase 1 (Homo sapiens, UniProt P00915)           NO
14          NS(=O)(=O)CCCn1cc(COc2ccccc2)nn1  Carbonic anhydrase 1 (Homo sapiens, UniProt P00915)          YES
15  CC1(C)CC(=O)c2cnc(Nc3ccc(S(=O)(=O)Nc4ccc([N+](=O)[O-])cc4)cc3)nc2C1  Carbonic anhydrase 1 (Homo sapiens, UniProt P00915)           NO
